Molecular target: EGFR^L858R (Homo sapiens, UniProt P00533, L858R)
Sequence (P00533 25-1210 L858R): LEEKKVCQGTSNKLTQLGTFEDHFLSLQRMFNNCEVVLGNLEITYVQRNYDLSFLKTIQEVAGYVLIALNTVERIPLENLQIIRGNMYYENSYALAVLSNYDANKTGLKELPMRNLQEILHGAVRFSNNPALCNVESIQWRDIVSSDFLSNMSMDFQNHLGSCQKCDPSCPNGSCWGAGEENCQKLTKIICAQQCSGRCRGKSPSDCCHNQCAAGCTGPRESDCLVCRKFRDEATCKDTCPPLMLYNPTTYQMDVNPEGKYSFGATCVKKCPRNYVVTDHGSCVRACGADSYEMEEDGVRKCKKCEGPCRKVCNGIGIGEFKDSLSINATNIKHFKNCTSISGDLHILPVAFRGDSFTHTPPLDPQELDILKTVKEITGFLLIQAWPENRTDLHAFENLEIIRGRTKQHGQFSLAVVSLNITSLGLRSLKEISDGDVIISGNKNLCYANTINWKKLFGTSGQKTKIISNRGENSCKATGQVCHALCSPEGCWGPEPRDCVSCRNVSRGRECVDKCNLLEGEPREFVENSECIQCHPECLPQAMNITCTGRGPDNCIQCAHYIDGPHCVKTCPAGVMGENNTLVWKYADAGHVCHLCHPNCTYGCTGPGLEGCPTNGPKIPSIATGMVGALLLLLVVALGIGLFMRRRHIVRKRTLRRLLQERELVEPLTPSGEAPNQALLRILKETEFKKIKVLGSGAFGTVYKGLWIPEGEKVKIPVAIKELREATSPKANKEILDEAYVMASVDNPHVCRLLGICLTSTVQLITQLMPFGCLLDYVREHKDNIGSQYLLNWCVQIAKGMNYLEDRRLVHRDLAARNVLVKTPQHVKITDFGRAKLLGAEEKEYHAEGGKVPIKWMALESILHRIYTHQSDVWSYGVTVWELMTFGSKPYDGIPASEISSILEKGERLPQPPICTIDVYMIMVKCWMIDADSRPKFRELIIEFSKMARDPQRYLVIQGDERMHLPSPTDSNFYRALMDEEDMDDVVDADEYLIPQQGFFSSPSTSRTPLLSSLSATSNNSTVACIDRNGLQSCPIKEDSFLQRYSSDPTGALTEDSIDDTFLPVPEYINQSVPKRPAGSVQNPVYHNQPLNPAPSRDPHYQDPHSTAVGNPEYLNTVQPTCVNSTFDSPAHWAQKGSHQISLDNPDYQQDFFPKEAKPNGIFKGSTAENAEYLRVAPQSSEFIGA
Assay: in vitro kinase assay (HTRF KinEASE-TK kit), L
Details: kinase inhibition
pIC50: −log10 of the molar value.
endpoint: pIC50

Examples from the recorded data:
C[C@H]1CCOc2c(cnn2C)-c2nccc(n2)Nc2cc3c(cn2)c(N2CC[C@@H](N(C)CCF)C2)nn31 [(179)]: > 8.00
C[C@H]1CCOc2c(cnn2C)-c2nccc(n2)Nc2cc3c(cn2)c(-c2ccc(CN(C)C)n2C)nn31 [(127)]: > 8.00

Exam item: Reported pIC50, compound CCN(CC)CCOc1cc(F)cc(-c2nn3c4cc(ncc24)Nc2ccnc(n2)-c2cnn(C)c2OCC[C@@H]3C)c1 [(133)] : ____
Marked response: 7.00 to 8.00

Exam item: Could you share which pIC50 value was measured for CCn1c(CN2CCN(C3CC3)CC2)ccc1-c1nn2c3cc(ncc13)Nc1ccnc(n1)-c1cnn(C)c1OCC[C@@H]2C [(125)] ?
Marked response: 7.00 to 8.00

Exam item: What value of measured pIC50 is listed for C[C@@H]1CCCOc2c(cnn2C)-c2nccc(n2)Nc2cc3c(cn2)c(N2CCC2)nn31 [(77)] ?
Marked response: ≤ 6.00

Exam item: Fill blank: measured pIC50 of the compound CCCN1CCN(Cc2cnc(-c3nn4c5cc(ncc35)Nc3ccnc(n3)-c3cnn(C)c3OCC[C@@H]4C)s2)CC1 [(142)] is ____.
Marked response: > 8.00

Exam item: Given the compound C[C@H]1CCOc2c(cnn2C)-c2nccc(n2)Nc2cc3c(cn2)c(N2CC[C@H](N(C)CCCF)C2)nn31 [(180)] , what is its reported pIC50?
Marked response: 7.00 to 8.00
